For each record, write down the corresponding solubility.
Assay Notes: Intrinsic solubility of the compound
Type: physicochemical
Test Parameters: read-out: Intrinsic_solubility
Give bare numbers, in µM.

Examples with answers:
Smi: CC(C)=CCc1c(O)cc2c(c1O)C(=O)C1=C[C@H]3C(=O)C4(CC=C(C)C)OC[C@H]([C@H]3CN3CCCC3)[C@]14O2
Assay Result: 980
--
Smi: CCCCN(CCCC)C[C@@H]1[C@H]2COC3(CC=C(C)C)C(=O)[C@@H]1C=C1C(=O)c4c(O)cc(O)c(CC=C(C)C)c4O[C@]123
Assay Result: 92
--
Smi: CC(C)=CCC12OC[C@@H]3[C@@H](CN(CCO)CCO)[C@@H](C=C4C(=O)c5c(O)cccc5O[C@]431)C2=O
Assay Result: 10400

Next up:
What solubility value was documented for this molecule, CC(C)=CCC12OC[C@@H]3[C@@H](COC(C)C)[C@@H](C=C4C(=O)c5c(O)cccc5O[C@]431)C2=O ?
1060

All figures here come from ChEMBL document CHEMBL2331512.
